- assayed.target: human 11β-HSD1 (Homo sapiens, UniProt P28845)
- Construct: expressed in transfected cells; sonicated cell suspension used as lysate
- Sequence (P28845 whole entry): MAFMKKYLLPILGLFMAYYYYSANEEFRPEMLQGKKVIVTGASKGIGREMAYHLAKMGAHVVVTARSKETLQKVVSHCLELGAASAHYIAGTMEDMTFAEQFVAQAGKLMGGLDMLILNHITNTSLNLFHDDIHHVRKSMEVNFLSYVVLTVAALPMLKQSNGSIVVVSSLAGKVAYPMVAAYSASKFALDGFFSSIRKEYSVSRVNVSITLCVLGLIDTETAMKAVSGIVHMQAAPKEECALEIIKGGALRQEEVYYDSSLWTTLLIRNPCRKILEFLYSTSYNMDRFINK
- measurement.notes: Human 11β-HSD1 enzyme inhibitory activity (lysate of stably expressing HEK293 cells, cortisol by competitive ELISA)
- Format: biochemical
- condition.set: human 11β-HSD1, HEK293 cell lysate, 100 nmol/L cortisone, 400 μmol/L NADPH, 37° C. 1 hour; read-out: IC50(μM) HSD1
The entries below are paired with their reported IC50.

cpd.smiles: O=C(COc1ccccc1C(F)(F)F)N1CCC2(CC1)C(=O)N(C1CC1)c1ccccc12
result.unit: µM
IC50: 0.72
--
cpd.smiles: CCN1C(=O)C2(CCN(C(=O)COc3ccccc3C(F)(F)F)CC2)c2ccccc21
result.unit: µM
IC50: 0.67
--
cpd.smiles: Cc1ccccc1OCC(=O)N1CCC2(CC1)C(=O)Nc1ccccc12
result.unit: µM
IC50: 0.82
--
cpd.smiles: CN1C(=O)C2(CCN(C(=O)COc3ccccc3C(F)(F)F)CC2)c2ccccc21
result.unit: µM
IC50: 0.068
--
cpd.smiles: O=C(COc1ccccc1I)N1CCC2(CC1)C(=O)Nc1ccccc12
result.unit: µM
IC50: 0.087
--
cpd.smiles: O=C(COc1ccccc1Br)N1CCC2(CC1)C(=O)Nc1ccccc12
result.unit: µM
IC50: 0.41
--
cpd.smiles: CC(C)(C)c1ccccc1OCC(=O)N1CCC2(CC1)C(=O)Nc1ccccc12
result.unit: µM
IC50: 0.73
--
cpd.smiles: O=C(COc1cccc(Cl)c1Cl)N1CCC2(CC1)C(=O)Nc1ccccc12
result.unit: µM
IC50: 0.96
--
cpd.smiles: O=C(CSc1ccccc1C(F)(F)F)N1CCC2(CC1)C(=O)Nc1ccccc12
result.unit: µM
IC50: 0.16
--
cpd.smiles: O=C(COc1ccccc1[N+](=O)[O-])N1CCC2(CC1)C(=O)Nc1ccccc12
result.unit: µM
IC50: 1
--
cpd.smiles: O=C(COc1ccccc1C(F)(F)F)N1CCC2(CC1)C(=O)Nc1ccccc12
result.unit: µM
IC50: 0.033
--
cpd.smiles: CCCN1C(=O)C2(CCN(C(=O)COc3ccccc3C(F)(F)F)CC2)c2ccccc21
result.unit: µM
IC50: 0.43
